These data points were gathered from ChEMBL document CHEMBL1201862.

Target: Nonstructural protein 1 (Influenza A virus)
Sequence (Q194T2 whole entry): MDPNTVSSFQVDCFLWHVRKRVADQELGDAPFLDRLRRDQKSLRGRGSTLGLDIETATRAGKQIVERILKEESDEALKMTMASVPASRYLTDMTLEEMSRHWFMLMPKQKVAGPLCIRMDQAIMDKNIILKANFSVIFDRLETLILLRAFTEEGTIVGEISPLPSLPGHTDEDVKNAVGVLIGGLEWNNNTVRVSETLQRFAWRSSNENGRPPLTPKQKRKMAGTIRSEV
Assay type: functional, Influenza A virus (A/California/07/2009(H1N1))
The source made the active and inactive calls.
readoutType: IC50

Some solved cases for reference:
{"compound": "COc1ccc(Nc2c([N+](=O)[O-])ccc3c2=NC2(CCCCC2)N=3)cc1", "IC50": "11.1 µM (active)"}
{"compound": "O=[N+]([O-])c1ccc(Sc2nc3ccccc3o2)c([N+](=O)[O-])c1", "IC50": "34.2 µM (active)"}
{"compound": "Cc1n[nH]c(=S)n(NC(=O)/C=C/C(=O)Nn2c(=S)[nH]nc(C)c2=O)c1=O", "IC50": "7.29 µM (active)"}
{"compound": "Cc1cc(C)c(C)c(N=Nc2nc3ccccc3n2C)c1C", "IC50": "17.6 µM (active)"}
{"compound": "CCc1cc2c(=O)[nH]c(-c3ccccn3)nc2s1", "IC50": "14.3 µM (active)"}

Using the record for C=CCN1C(=O)/C(=C/C=C2/N(CC)c3ccc(S(=O)(=O)N(C)C)cc3N2CC)SC1=S , report its IC50.
> 100 µM (active)

Using the record for O=C(CSC1=NNC(c2ccccn2)S1)Nc1ccccc1 (stereo unspecified) , report its IC50.
0.986 µM (active)

Using the record for CCN(CC)c1ccc(CNc2nc3ccccc3n2CCN2CCCCC2)cc1 , report its IC50.
27 µM (active)

----------
// reported EC50 for each item listed
Biological target: E3 ubiquitin-protein ligase Mdm2 (Homo sapiens, UniProt Q00987)
Sequence (Q00987 whole entry): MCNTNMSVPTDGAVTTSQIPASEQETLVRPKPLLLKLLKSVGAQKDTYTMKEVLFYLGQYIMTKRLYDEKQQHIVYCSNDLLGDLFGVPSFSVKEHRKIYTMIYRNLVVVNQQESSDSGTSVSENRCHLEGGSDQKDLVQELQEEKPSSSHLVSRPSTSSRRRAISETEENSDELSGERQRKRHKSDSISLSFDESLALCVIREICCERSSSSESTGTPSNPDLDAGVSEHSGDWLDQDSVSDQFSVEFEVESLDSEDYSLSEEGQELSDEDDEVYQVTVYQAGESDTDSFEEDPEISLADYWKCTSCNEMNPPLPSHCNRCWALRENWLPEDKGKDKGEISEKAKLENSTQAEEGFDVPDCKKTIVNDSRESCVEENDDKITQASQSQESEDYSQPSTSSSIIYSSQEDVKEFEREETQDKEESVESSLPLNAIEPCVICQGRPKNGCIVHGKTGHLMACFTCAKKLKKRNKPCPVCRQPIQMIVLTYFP
Assay: MDM2-luc reporter signal enhancers, multi-concentration potency testing, MDM2 ubiquitin-protein ligase inhibitor program, whole-cell format, luminescence detection, 384-well microplate (AID 1394);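 further: MDM2 E3 inhibitors raise luminescence so EC50 is for signal enhancement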
Assay type: functional
The source made the active and inactive calls.

{"chemicalSmiles": "COCCNC(=O)/C(C#N)=C/c1cccc(/C=C(\\C#N)C(=O)NCCOC)c1", "EC50": "0.94 µM (active)"}
{"chemicalSmiles": "O=C(Nc1ccncc1)Nc1ccncc1", "EC50": "8.86 µM (not active)"}
{"chemicalSmiles": "Cc1ccc2c(c1)c1ccc3c(c1n2C)C(=O)C=CC3=O", "EC50": "958 µM (active)"}

Now look at this entry.
Using the record for O=C(CSc1ccc(-c2ccco2)nn1)NC1CCCC1 , report its EC50.
0.75 µM (not active)

----------
Molecular target: Protein RecA (Mycobacterium tuberculosis, UniProt P9WHJ3)
Assay: Fluorescence Cell-Free Homogeneous Dose Retest to Identify Inhibitors of RecA-Intein Splicing Activity. [Related pubchem assays (depositor defined):AID2097, AID2223, AID489010, AID492950]
Format: functional
Active and inactive are the calls of the source.
Return exactly one item of active, inactive

Recorded test outcome, item CC1=NC2(O)c3ccccc3C(=O)C2(O)/C1=C(/O)OC(C)C (stereo unspecified)
active

Recorded test outcome, item C/C(CC(=O)Nc1ccccn1)=N\NC(=O)c1ccncc1
active

Recorded test outcome, item COc1ccccc1C(NC(C)=O)c1c(O)ccc2ccc(O)cc12 (stereo unspecified)
active

Recorded test outcome, item COc1ccc(C2=NN(c3ccccc3)C(=O)/C2=C\c2ccc(O)c(OC)c2)cc1
active

Recorded test outcome, item CCCn1c(=O)[nH]c(=O)c2c1nc(-c1ccc(OC(F)F)c(OC)c1)n2CCOC
inactive

Recorded test outcome, item Cc1ccc(C2C(C#N)=C(N)Oc3[nH]nc(-c4ccccc4)c32)o1 (stereo unspecified)
active

Recorded test outcome, item Cc1ccc(NC2=C(N3CCCCC3)C(=O)c3ccccc3C2=O)cc1
active

Recorded test outcome, item O=[N+]([O-])c1ccc(Sc2nc3ccccc3o2)c([N+](=O)[O-])c1
active

Recorded test outcome, item COc1ccc(OC)c(-c2[nH]nc3c2C(c2ccco2)C(C#N)=C(N)O3)c1 (stereo unspecified)
active

Recorded test outcome, item COc1ccc(-c2nnc(SC(=O)N3c4ccccc4Sc4ccccc43)o2)cc1
active

Recorded test outcome, item CCOC(=O)c1nnc(-c2ccccc2)nc1Sc1ccccc1Cl
active
